System: human lung cancer cells EBC-1
assay details: Efficacy in nude mouse tumor-bearing model of human lung cancer cells EBC-1
Assay type: in vivo, Balb/c nude mouse
conditions: 15 mg/kg oral once a day, day 21
endpoint label: T/C (relative tumor proliferation rate) (%)
Response body: numeric value in %, unit text excluded.

molecule	T/C (relative tumor proliferation rate) / %
O=C(Nc1ccc(F)cc1)C1(C(=O)Nc2ccc(Oc3ccnc4cc(OCCCN5CCOCC5)c5c(c34)OCCO5)c(F)c2)CC1 [Example 1]	19.41

**Q:** Write down T/C (relative tumor proliferation rate) measured for item O=C(Nc1ccc(F)cc1)C1(C(=O)Nc2ccc(Oc3ccnc4cc(OCCCN5CCOCC5)c5c(c34)OCCO5)c(F)c2)CC1 [Free state]
**A:** 64.60

**Q:** Supply reported T/C (relative tumor proliferation rate) belonging to this molecule: O=C(Nc1ccc(F)cc1)C1(C(=O)Nc2ccc(Oc3ccnc4cc(OCCCN5CCOCC5)c5c(c34)OCCO5)c(F)c2)CC1 [Example 2]
**A:** 12.09

**Q:** Quickly give me recorded T/C (relative tumor proliferation rate) for O=C(Nc1ccc(F)cc1)C1(C(=O)Nc2ccc(Oc3ccnc4cc(OCCCN5CCOCC5)c5c(c34)OCCO5)c(F)c2)CC1 [Example 5]
**A:** 26.2

====

assay details: Dynamic solubility in water, SGF, FaSSIF and FeSSIF
Assay type: physicochemical
conditions: 37 °C, pH 6.5, fassif, thermodynamic from solid
endpoint label: solubility at 4 h

**Q:** Assign solubility at 4 h to the following record: O=C(Nc1ccc(F)cc1)C1(C(=O)Nc2ccc(Oc3ccnc4cc(OCCCN5CCOCC5)c5c(c34)OCCO5)c(F)c2)CC1 [Free state]
**A:** 2.1 µg/mL

====

assay details: Dynamic solubility in water, SGF, FaSSIF and FeSSIF
Assay type: physicochemical
conditions: 37 °C, pH 6.5, fassif, thermodynamic from solid
endpoint label: solubility at 24 h (µg/mL)
# value in µg/mL; strip the unit string

**Q:** Return reported solubility at 24 h. Input compound: O=C(Nc1ccc(F)cc1)C1(C(=O)Nc2ccc(Oc3ccnc4cc(OCCCN5CCOCC5)c5c(c34)OCCO5)c(F)c2)CC1 [Free state]
**A:** 2.5

====

Test system: human lung cancer cells EBC-1
assay details: Efficacy in nude mouse tumor-bearing model of human lung cancer cells EBC-1
Assay type: in vivo, Balb/c nude mouse
conditions: 7.5 mg/kg oral once a day, day 18
Measured T/C (relative tumor proliferation rate), listed per entry for reference.

**Q:** Recall and state the measured T/C (relative tumor proliferation rate) for O=C(Nc1ccc(F)cc1)C1(C(=O)Nc2ccc(Oc3ccnc4cc(OCCCN5CCOCC5)c5c(c34)OCCO5)c(F)c2)CC1 [Example 2] .
**A:** 37.7%

**Q:** Indicate its recorded T/C (relative tumor proliferation rate); the molecule in question is O=C(Nc1ccc(F)cc1)C1(C(=O)Nc2ccc(Oc3ccnc4cc(OCCCN5CCOCC5)c5c(c34)OCCO5)c(F)c2)CC1 [Example 1]
**A:** 47.4%

**Q:** // Input: O=C(Nc1ccc(F)cc1)C1(C(=O)Nc2ccc(Oc3ccnc4cc(OCCCN5CCOCC5)c5c(c34)OCCO5)c(F)c2)CC1 [Example 5] . Output its T/C (relative tumor proliferation rate) only.
**A:** 66.5%

**Q:** Hello, please tell me recorded T/C (relative tumor proliferation rate) for this one: O=C(Nc1ccc(F)cc1)C1(C(=O)Nc2ccc(Oc3ccnc4cc(OCCCN5CCOCC5)c5c(c34)OCCO5)c(F)c2)CC1 [Free state]
**A:** 81.3%

The values you see were collected from patent US20260176285A1.
